Value source: paper PMC8307404

- Experimental system: PRAK (Homo sapiens, UniProt Q8IW41)
- Sequence (Q8IW41 1-473): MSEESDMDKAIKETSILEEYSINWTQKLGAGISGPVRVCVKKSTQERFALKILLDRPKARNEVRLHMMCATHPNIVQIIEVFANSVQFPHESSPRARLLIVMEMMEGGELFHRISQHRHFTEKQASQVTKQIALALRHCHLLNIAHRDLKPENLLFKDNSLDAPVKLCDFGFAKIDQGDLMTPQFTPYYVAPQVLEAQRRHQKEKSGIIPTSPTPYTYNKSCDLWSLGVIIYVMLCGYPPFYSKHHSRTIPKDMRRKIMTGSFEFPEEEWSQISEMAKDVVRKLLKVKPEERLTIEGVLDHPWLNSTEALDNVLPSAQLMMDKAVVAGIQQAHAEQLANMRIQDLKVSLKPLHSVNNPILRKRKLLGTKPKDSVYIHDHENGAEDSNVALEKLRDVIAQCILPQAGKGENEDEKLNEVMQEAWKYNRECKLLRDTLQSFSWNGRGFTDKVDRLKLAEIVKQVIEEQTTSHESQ
- Assay info: Kinase profiling (radiometric filter-binding)
- Type: biochemical
- Experimental parameters: 1 µM inhibitor, read-out: Residual activity, %
Square brackets hold non-standard residues; d marks the D form. Peptide text beside a SMILES is read from it. * marks the point of attachment. X3 = O=C(CCCCCNCc1nc2c(sc3cc(Br)cnc32)c(=O)[nH]1)*
Reported remaining activity at 1 µM values are given for each entry in this list.
Write it as a number; the unit % goes unstated.

Example entries and their recorded answers appear below.
- Compound: "N=C(N)NCCC[C@@H](NC(=O)CCCCCNC(=O)Cn1cnc2c(I)c(I)c(I)c(I)c21)C(=O)N[C@H](CCCNC(=N)N)C(=O)N[C@H](CCCNC(=N)N)C(=O)N[C@H](CCCNC(=N)N)C(=O)N[C@H](CCCNC(=N)N)C(=O)N[C@H](CCCNC(=N)N)C(=O)N[C@H](CCCCN)C(N)=O"
  Experimental system: "PRAK (Homo sapiens, UniProt Q8IW41)"
  Quantitative readout: 112
- Compound: "N=C(N)NCCC[C@@H](NC(=O)CNC(=O)[C@@H](CCCNC(=N)N)NC(=O)[C@@H](CCCNC(=N)N)NC(=O)CCCCCCCNCc1nc2c(sc3ccc(Br)cc32)c(=O)[nH]1)C(=O)N[C@H](CCCCN)C(N)=O"
  Experimental system: "PRAK (Homo sapiens, UniProt Q8IW41)"
  Quantitative readout: 89

Could you please provide reported remaining activity at 1 µM for N=C(N)NCCC[C@@H](NC(=O)CCCCCNCc1nc2c(sc3cc(Br)cnc32)c(=O)[nH]1)C(=O)N[C@H](CCCNC(=N)N)C(=O)N[C@H](CCCNC(=N)N)C(=O)N[C@H](CCCNC(=N)N)C(=O)N[C@H](CCCNC(=N)N)C(=O)N[C@H](CCCNC(=N)N)C(=O)N[C@H](CCCCN)C(N)=O [ARC-3126, BPTP-Ahx-(D-Arg)6-D-Lys-NH2] (X3-[dR][dR][dR][dR][dR][dR][dK]-NH2) ? Thanks!
97

Could you please provide reported remaining activity at 1 µM for "N=C(N)NCCC[C@@H](NC(=O)CNC(=O)[C@@H](CCCNC(=N)N)NC(=O)[C@@H](CCCNC(=N)N)NC(=O)Cn1cc(CNCc2nc3c(sc4ccc(Br)cc43)c(=O)[nH]2)nn1)C(=O)N[C@H](CCCCN)C(N)=O" ? Thanks!
79

Could you please provide reported remaining activity at 1 µM for "N=C(N)NCCC[C@@H](NC(=O)CNC(=O)[C@@H](CCCNC(=N)N)NC(=O)[C@@H](CCCNC(=N)N)NC(=O)CCCCCCCNCc1nc2c(sc3cc(Br)cnc32)c(=O)[nH]1)C(=O)N[C@H](CCCCN)C(N)=O" ? Thanks!
104
